Biological target: CDK2/Cyclin A2 (Homo sapiens) (UniProt P24941+P20248)
Test: Inhibition of CDK2/Cyclin A (unknown origin) assessed as enzyme activity at 1 uM preincubated for 20 mins followed by ATP addition and measured after 120 mins in presence of [33P-gamma] ATP by hotspot kinase assay relative to control
Format: protein-complex assay
Parameters: scale not given: the % may be the effect or the level left
Conditions: time 140.0 min
Binary call on Activity: label 1 from 60% upward, label 0 beneath that.

{"columns": ["Chem smiles", "Assigned category"],
 "data": [
  ["COc1cccc(-c2ccnc(Nc3ccc4c(N5CCOCC5)c(C(C)=O)c(=O)oc4c3)n2)c1", "label 0"],
  ["COc1cc(F)ccc1-c1ccnc(Nc2ccc3c(N4CCCCC4)c(C(C)=O)c(=O)oc3c2)n1", "label 1"]
]}

Identify whether the reported Activity of the following compound is 60% or greater: `COc1ccc(-c2ccnc(Nc3ccc4c(N5CCOCC5)c(C(C)=O)c(=O)oc4c3)n2)cc1`
label 0

Queued: `COc1ccc(-c2ccnc(Nc3ccc4c(N5CCOCC5)c(C(C)=O)c(=O)oc4c3)n2)c(OC)c1`
label 0

Queued: `CCc1ccccc1-c1ccnc(Nc2ccc3c(N4CCOCC4)c(C(C)=O)c(=O)oc3c2)n1`
label 0

Queued: `COc1cc(F)ccc1-c1nc(Nc2ccc3c(N4CCOCC4)cc(=O)oc3c2)ncc1F`
label 0

Queued: `COc1ccccc1-c1cc(Nc2ccc3c(C)c(C(C)=O)c(=O)oc3c2)ncn1`
label 1

---

Target: Cyclin-dependent kinase 7/ cyclin H (Homo sapiens)
Sequence (P51946 whole entry): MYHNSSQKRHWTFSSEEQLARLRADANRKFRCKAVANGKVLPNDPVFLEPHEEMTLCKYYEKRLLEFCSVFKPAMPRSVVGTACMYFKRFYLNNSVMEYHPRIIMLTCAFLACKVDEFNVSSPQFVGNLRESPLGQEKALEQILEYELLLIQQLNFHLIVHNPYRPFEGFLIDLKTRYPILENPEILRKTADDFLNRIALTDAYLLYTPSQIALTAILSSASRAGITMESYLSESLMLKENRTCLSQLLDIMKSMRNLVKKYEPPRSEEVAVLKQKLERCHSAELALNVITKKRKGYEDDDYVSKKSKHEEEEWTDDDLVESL
Sequence (P50613 whole entry): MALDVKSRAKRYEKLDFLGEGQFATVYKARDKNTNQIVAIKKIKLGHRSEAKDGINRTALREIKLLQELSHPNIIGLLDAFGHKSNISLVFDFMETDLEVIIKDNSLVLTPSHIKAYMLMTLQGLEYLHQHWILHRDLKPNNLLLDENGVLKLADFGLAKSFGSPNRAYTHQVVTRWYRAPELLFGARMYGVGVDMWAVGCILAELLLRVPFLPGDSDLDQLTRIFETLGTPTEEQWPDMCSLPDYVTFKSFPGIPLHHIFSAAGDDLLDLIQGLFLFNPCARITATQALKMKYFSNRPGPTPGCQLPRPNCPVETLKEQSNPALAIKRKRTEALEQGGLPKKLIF
Test: Inhibition of CDK7/Cyclin H (unknown origin) preincubated for 20 mins followed by ATP addition and measured after 120 mins in presence of [33P-gamma] ATP by hotspot kinase assay
Format: protein-complex assay
Reported property: pIC50
Friendly reminder that pIC50 comes from taking -log10 of the concentration in mol/L.

What does the data say about its pIC50? Entry: `COc1cc(F)ccc1-c1nc(Nc2ccc3c(N4CCOCC4)c(C(C)=O)c(=O)oc3c2)ncc1F`
4.78

---

Experiment: Clearance in ICR mouse at 2 mg/kg, iv measured up to 24 hrs by LC-MS/MS analysis
Type: ADME, organism-based
Conditions: in vivo
Reported property: clearance (mL/min/kg)
Value expressed in mL/min/kg; do not type the unit.

What does the data say about its clearance? Entry: `COc1cc(F)ccc1-c1nc(Nc2ccc3c(N4CCOCC4)c(C(C)=O)c(=O)oc3c2)ncc1F`
59.3

---

microsomal CLint at 1 µM values, listed per item
Experiment: Metabolic stability in human liver microsomes assessed as intrinsic clearance at 1 uM incubated up to 60 mins in presence of NADPH by LC-MS/MS analysis
Format: ADME, Microsome
Conditions: read-out: CLH
Value expressed in µL/min/mg; do not type the unit.

Recorded microsomal CLint at 1 µM, per entry:
{"columns": ["Chem smiles", "Value units", "microsomal CLint at 1 µM"],
 "data": [
  ["Cc1ncc2n1-c1ccc(Cl)cc1C(c1ccccc1F)=NC2", "µL/min/mg", 287],
  ["COc1cc(F)ccc1-c1nc(Nc2ccc3c(N4CCOCC4)c(C(C)=O)c(=O)oc3c2)ncc1F", "µL/min/mg", 38.8]
]}

What does the data say about its microsomal CLint at 1 µM? Entry: `COc1cc(F)ccc1-c1ccnc(Nc2ccc3c(N4CCOCC4)c(C(C)=O)c(=O)oc3c2)n1`
41.4

---

Assay: Half life in ICR mouse at 2 mg/kg, iv measured up to 24 hrs by LC-MS/MS analysis
Type: ADME, organism-based
Settings: in vivo
Reported property: half-life (min)
Value expressed in min; do not type the unit.

What does the data say about its half-life? Entry: `COc1cc(F)ccc1-c1nc(Nc2ccc3c(N4CCOCC4)c(C(C)=O)c(=O)oc3c2)ncc1F`
13.8

---

Biological target: CDK9/cyclin T1 (Homo sapiens)
Sequence (O60563 whole entry): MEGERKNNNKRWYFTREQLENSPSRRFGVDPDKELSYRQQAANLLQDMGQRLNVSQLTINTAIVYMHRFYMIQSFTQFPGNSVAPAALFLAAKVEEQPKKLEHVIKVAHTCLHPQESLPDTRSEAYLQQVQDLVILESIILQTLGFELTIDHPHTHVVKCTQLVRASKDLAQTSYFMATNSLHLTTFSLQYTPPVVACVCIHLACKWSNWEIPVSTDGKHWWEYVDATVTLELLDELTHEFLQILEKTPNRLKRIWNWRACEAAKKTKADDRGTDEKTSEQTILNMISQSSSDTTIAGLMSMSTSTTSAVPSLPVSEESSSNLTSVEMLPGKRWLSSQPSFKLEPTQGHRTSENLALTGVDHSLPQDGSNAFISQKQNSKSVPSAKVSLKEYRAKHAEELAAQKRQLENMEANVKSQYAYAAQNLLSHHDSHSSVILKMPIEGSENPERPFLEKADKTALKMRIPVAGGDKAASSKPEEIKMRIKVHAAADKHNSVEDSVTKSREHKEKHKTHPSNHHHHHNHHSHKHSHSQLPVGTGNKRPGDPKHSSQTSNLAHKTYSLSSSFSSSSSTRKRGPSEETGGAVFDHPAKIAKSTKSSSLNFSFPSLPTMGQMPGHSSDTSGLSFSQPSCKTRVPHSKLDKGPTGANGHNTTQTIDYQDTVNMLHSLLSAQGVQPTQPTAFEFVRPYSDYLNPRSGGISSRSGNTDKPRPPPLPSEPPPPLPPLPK
Sequence (P50750 whole entry): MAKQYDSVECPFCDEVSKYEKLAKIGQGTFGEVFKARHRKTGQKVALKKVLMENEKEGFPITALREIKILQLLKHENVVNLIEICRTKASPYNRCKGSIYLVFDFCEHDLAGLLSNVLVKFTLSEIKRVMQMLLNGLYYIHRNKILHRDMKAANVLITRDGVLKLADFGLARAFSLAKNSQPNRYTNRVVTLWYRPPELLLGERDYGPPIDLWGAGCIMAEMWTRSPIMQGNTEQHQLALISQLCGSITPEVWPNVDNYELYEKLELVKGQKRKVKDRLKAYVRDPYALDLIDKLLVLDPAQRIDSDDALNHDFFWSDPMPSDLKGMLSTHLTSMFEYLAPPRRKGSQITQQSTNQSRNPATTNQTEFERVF
Assay: Inhibition of CDK9/Cyclin T1 (unknown origin) preincubated for 20 mins followed by ATP addition and measured after 120 mins in presence of [33P-gamma] ATP by hotspot kinase assay
Assay type: protein-complex assay
Reported property: IC50 (nM)
Value expressed in nM; do not type the unit.

What does the data say about its IC50? Entry: `CC(=O)c1c(N2CCOCC2)c2ccc(Nc3nccc(-c4ccccc4[N+](=O)[O-])n3)cc2oc1=O`
2340

Queued: `COc1cc(F)ccc1-c1nc(Nc2ccc3c(N4CCN(C)CC4)c(C(C)=O)c(=O)oc3c2)ncc1Cl`
1.7

Queued: `CCN1CCN(c2c(C(C)=O)c(=O)oc3cc(Nc4ncc(F)c(-c5ccc(F)cc5OC)n4)ccc23)CC1`
1.2

---

Activity values, listed per item
Target: CDK2/Cyclin A2 (Homo sapiens) (UniProt P24941+P20248)
Assay: Inhibition of CDK2/Cyclin A (unknown origin) assessed as enzyme activity at 1 uM preincubated for 20 mins followed by ATP addition and measured after 120 mins in presence of [33P-gamma] ATP by hotspot kinase assay relative to control
Assay type: protein-complex assay
Parameters: scale not given: the % may be the effect or the level left
Conditions: time 140.0 min
Value expressed in %; do not type the unit.

What does the data say about its Activity? Entry: `CCN1CCN(c2c(C(C)=O)c(=O)oc3cc(Nc4nccc(-c5ccc(F)cc5OC)n4)ccc23)CC1`
61.8

Queued: `COc1cccc(F)c1-c1ccnc(Nc2ccc3c(N4CCOCC4)c(C(C)=O)c(=O)oc3c2)n1`
58.7

Queued: `COc1ccc(F)cc1-c1ccnc(Nc2ccc3c(N4CCOCC4)c(C(C)=O)c(=O)oc3c2)n1`
49.6

Queued: `COc1cc(F)ccc1-c1ccnc(Nc2ccc3c(N4CCN(C)CC4)c(C(C)=O)c(=O)oc3c2)n1`
74.8

Queued: `COc1ccccc1-c1ccnc(Nc2ccc3c(N4CCOCC4)cc(=O)oc3c2)n1`
57.9
